System: HL-60
Protocol notes: IC50 and LC50 of ATA at 48 h
Assay type: cell-based
Test parameters: Homo sapiens, HL-60 leukemia
Metric: IC50 (nM)
Just the number in nM, nothing appended.

IN: Can you look up the measured IC50 of "CC(=O)Oc1c(OC(C)=O)c2c(C)coc2c2ccc3c(c12)CCCC3(C)C" for me?
OUT: 2980

* * *

Test system: MCF-7/HER2 cells
Protocol notes: Growth inhibition of HER2 over-expressing cells at 72 h
Format: cell-based
Test parameters: Homo sapiens, MCF7; MCF-7/HER2 cells, 72 h
Metric: IC50 (nM)
Express your answer in nM, writing the number without its unit.

IN: I'm curious: which IC50 was measured for "CC(=O)Oc1c(OC(C)=O)c2c(C)coc2c2ccc3c(c12)CCCC3(C)C" tested on MCF-7/HER2 cells?
OUT: 1000
